studyTarget: Recombinant Cat D (Homo sapiens (Human))
Sequence (P07339 65-412): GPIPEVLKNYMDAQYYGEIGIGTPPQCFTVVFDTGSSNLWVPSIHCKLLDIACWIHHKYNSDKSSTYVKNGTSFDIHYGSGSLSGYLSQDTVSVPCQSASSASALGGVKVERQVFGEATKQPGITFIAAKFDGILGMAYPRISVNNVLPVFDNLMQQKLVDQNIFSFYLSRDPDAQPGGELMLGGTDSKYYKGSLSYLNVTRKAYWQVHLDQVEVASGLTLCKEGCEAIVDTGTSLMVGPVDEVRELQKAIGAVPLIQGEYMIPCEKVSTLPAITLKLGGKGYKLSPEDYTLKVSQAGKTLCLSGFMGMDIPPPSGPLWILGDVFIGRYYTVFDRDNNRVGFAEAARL
testDetails: In vitro enzymatic Cathepsin D (Cat D) FRET assay
Format: biochemical
conditionLabel: Cathepsin D FRET enzyme assay; read-out: IC50 IP (μM) CatD
Experimental: In Vitro Enzymatic Cathepsin D (Cat D) FRET (Fluorescence Resonance Energy Transfer) Assay Recombinant Cat D was expressed in CHO cells. The assay buffer for CathepsinD is 0.05 M citrate pH 3.5, 10% DMSO final, 5 mM CHAPS. […] The FRET assay is terminated with by addition of Tris buffer, which raises the pH to neutrality, and the fluorescence is determined. […] Proteolytic cleavage of the FRET substrate releases quenching of fluorescence (Cat D excitation 500 nm and emission 580 nm).
observedProperty: IC50 (µM)
Provide only the numeric value, understood in µM.

// worked examples, IC50 included
COC[C@@]12C[C@@H]1[C@@](CF)(c1cc(Nc3nccc4cc(C#N)cnc34)cc(F)c1F)N=C(N)S2 : 34.1
C[C@]1(c2cc(NC(=O)c3ccc(Cl)cn3)ccc2F)N=C(N)S[C@@H]2[C@H]1C2(F)F : 939
Cc1cc(C#N)cnc1C(=O)Nc1cc(F)c(F)c([C@@]2(C)N=C(N)S[C@@]3(C(F)F)C[C@@H]23)c1 : 559
NC1=N[C@](CF)(c2cc(NC(=O)c3ccc(Cl)cn3)cc(F)c2F)[C@@H]2C[C@@H]2S1 [Example 5] : 1420

input: I'd like to know its IC50. The molecule in question is C#CCOc1cnc(C(=O)Nc2ccc(F)c([C@@]3(CF)N=C(N)S[C@@]4(CO)C[C@H]43)c2)c(C)n1
output: 1490

input: Now try N#Cc1cnc2c(Nc3ccc(F)c([C@@]4(CF)N=C(N)S[C@H]5C[C@H]54)c3)ncnc2c1 .
output: 1350

input: Next record, please: C#CCOc1cnc(C(=O)Nc2cc(F)c(F)c([C@@]3(C)N=C(N)S[C@H]4C[C@H]43)c2)c(C)n1
output: 949

input: Entry to check: COc1cnc(C(=O)Nc2cc(F)c(F)c([C@@]3(CF)N=C(N)S[C@H]4C[C@H]43)c2)c(C)c1
output: 1390

input: What do we get for N#Cc1cnc2c(Nc3cc(F)c(F)c([C@@]4(CF)N=C(N)S[C@H]5C[C@H]54)c3)ncnc2c1 ?
output: 466

input: // next record C#CCOc1cnc(C(=O)Nc2ccc(F)c([C@@]3(C)N=C(N)S[C@@H]4[C@H]3C4(F)F)c2)c(C)n1
output: 361

input: Would you mind doing Cc1cc(C#N)cnc1C(=O)Nc1cc(F)c(F)c([C@@]2(C)N=C(N)S[C@H]3C[C@H]32)c1 as well?
output: 669

input: How about this molecule: COc1cnc(C(=O)Nc2cc(F)c(F)c([C@@]3(CF)N=C(N)S[C@H]4C[C@H]43)c2)c(C)n1
output: 863

input: Now the same for NC1=N[C@](CF)(c2cc(NC(=O)c3ccc(Cl)cn3)cc(F)c2F)[C@@H]2C[C@]2(CO)S1
output: 1400

====

studyTarget: human recombinant BACE2 (Homo sapiens (Human), UniProt Q9Y5Z0)
Sequence (Q9Y5Z0 63-518): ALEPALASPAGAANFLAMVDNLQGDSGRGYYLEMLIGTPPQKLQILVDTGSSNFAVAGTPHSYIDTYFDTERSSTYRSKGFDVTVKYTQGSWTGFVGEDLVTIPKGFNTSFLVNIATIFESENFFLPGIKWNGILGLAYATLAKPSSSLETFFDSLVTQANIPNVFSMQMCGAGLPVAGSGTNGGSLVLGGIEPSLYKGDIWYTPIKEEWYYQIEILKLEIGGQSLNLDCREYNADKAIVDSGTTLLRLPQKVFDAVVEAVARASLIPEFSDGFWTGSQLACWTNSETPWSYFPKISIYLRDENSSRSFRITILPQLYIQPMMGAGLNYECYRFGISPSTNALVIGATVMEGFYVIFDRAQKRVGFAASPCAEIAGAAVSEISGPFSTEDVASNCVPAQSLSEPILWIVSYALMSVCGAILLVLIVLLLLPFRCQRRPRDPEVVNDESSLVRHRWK
testDetails: In vitro enzymatic BACE2 FRET assay
Assay type: biochemical
conditionLabel: read-out: IC50 IP (μM) BACE2 enzyme
Entries and their IC50 values follow.
Give the number; µM is assumed, so skip it.

input: Consider the molecule shown here: C#CCOc1cnc2c(Nc3cc(F)c(F)c([C@@]4(C)N=C(N)S[C@@]5(C(F)F)C[C@@H]45)c3)nccc2n1 [Example 805] What is its recorded IC50?
output: 0.0189

input: Also, N#CC[C@]12C[C@H]1[C@@](CF)(c1cc(NC(=O)c3ccc(Cl)cn3)ccc1F)N=C(N)S2 [Example 718] please.
output: 0.00131

input: Then this molecule: [2H]C([2H])([2H])OC[C@]12C[C@H]1[C@@](C)(c1cc(NC(=O)c3cnc(OCC#C)cn3)cnc1F)N=C(N)S2 [Example 851]
output: 0.0184

====

studyTarget: Recombinant Cat D (Homo sapiens (Human))
testDetails: In vitro enzymatic Cathepsin D (Cat D) FRET assay
Assay type: biochemical
conditionLabel: read-out: IC50 IP (μM) CatD
observedProperty: IC50

Solved entries (count: 5):
C[C@]1(c2cc(NC(=O)c3cnc(OCC(F)(F)F)cn3)ccc2F)N=C(N)S[C@@]2(CF)C[C@H]21 : 395 µM
C#CCOc1cnc2c(Nc3cc(F)c(F)c([C@@]4(C)N=C(N)S[C@@]5(C#N)C[C@H]54)c3)ncnc2c1 : 172 µM
COC[C@]12C[C@H]1[C@@](C)(c1cc(NC(=O)c3cnc(OCc4noc(C)n4)cn3)cc(F)c1F)N=C(N)S2 : 959 µM
C#CCOc1cnc(C(=O)Nc2ccc(F)c([C@@]3(C)N=C(N)S[C@@]4(C(=O)NC)C[C@H]43)c2)cn1 : 49.9 µM
C[C@]1(c2cc(Nc3nccc4nc(OCc5ncccn5)cnc34)cc(F)c2F)N=C(N)S[C@@]2(C(F)F)C[C@@H]12 : > 400 µM

Read the next record carefully.
input: Report IC50 for C#CCOc1cnc2c(Nc3ccc(F)c([C@@]4(C)N=C(N)S[C@@]5([C@@H](O)C(F)(F)F)C[C@H]54)c3)nccc2n1 please.
output: 638 µM

====

studyTarget: human recombinant BACE2 (Homo sapiens (Human), UniProt Q9Y5Z0)
testDetails: In vitro enzymatic BACE2 FRET assay
Format: biochemical
conditionLabel: read-out: IC50 IP (μM) BACE2 enzyme
Reported IC50 values for a set of compounds
Express your answer in µM, writing the number without its unit.

// known answers, use as guide
C[C@H](Oc1cnc2c(Nc3cc(F)c(F)c([C@@]4(C)N=C(N)S[C@@]5(C#N)C[C@H]54)c3)nccc2n1)c1ncco1 : 0.127
COC[C@]12C[C@H]1[C@@](C)(c1cc(Nc3nccc4nc(OCc5cocn5)cnc34)cc(F)c1F)N=C(N)S2 : 0.0383

Attention now turns to another entry.
input: Report IC50 for C#C[C@H](C)Oc1cnc(C(=O)Nc2cc(F)c(F)c([C@@]3(C)N=C(N)S[C@@]4(COC)C[C@H]43)c2)c(C)c1 tested on human recombinant BACE2 (Homo sapiens (Human), UniProt Q9Y5Z0).
output: 0.556

====

studyTarget: human recombinant BACE1 (Homo sapiens (Human), UniProt P56817)
Sequence (P56817 46-501): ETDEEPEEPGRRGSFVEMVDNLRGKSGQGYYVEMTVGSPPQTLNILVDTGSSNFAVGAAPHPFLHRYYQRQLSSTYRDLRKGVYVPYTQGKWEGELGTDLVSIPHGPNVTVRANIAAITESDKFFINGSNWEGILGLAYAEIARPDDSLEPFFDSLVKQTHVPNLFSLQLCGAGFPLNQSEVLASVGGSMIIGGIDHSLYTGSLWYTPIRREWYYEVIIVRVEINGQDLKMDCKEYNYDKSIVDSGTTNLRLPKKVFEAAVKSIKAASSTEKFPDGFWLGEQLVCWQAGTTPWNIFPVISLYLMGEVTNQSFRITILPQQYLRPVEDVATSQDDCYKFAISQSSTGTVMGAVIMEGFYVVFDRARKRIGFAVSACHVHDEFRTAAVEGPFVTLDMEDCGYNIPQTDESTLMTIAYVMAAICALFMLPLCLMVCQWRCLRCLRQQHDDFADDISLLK
testDetails: In vitro enzymatic BACE1 FRET assay
Type: biochemical
conditionLabel: read-out: IC50 IP (μM) BACE1 enzyme
Reported log10 IC50 values for a set of compounds
Response schema: value (number) is log10 of IC50 in units of µM.

For orientation, consider the following solved cases.
C[C@]1(c2cc(NC(=O)c3cnc(OCC(F)(F)C(F)F)cn3)ccc2F)N=C(N)S[C@]2(CO)[C@H]1C2(F)F : -3.01
Cc1cc(OCc2ncco2)cnc1C(=O)Nc1cc(F)c(F)c([C@@]2(C)N=C(N)S[C@@]3(CF)C[C@H]32)c1 : -2.47
CC(C)(C)NC(=O)[C@]12C[C@H]1[C@@](C)(c1cc(NC(=O)c3ccc(Cl)cn3)ccc1F)N=C(N)S2 : -2.34

input: GET /values?readout=log10 IC50&system=human recombinant BACE1 (Homo sapiens (Human), UniProt P56817)&item= C[C@]1(c2cc(Nc3ncnc4cc(OCc5ncco5)cnc34)cnc2F)N=C(N)S[C@@]2([C@H](O)C(F)(F)F)C[C@H]21
output: -2.58

input: Then this compound: C[C@]1(c2cc(Nc3nccc4cc(C#N)cnc34)cnc2F)N=C(N)S[C@H]2C[C@H]21
output: -1.73

input: Another compound to look at: C#CCOc1cnc(C(=O)Nc2cnc(OC)c([C@@]3(C)N=C(N)S[C@@]4(C(F)F)C[C@@H]34)c2)cn1
output: -3.29

input: Also, C#CCOc1cnc2c(Nc3cnc(F)c([C@@]4(C)N=C(N)S[C@@]5([C@@H](O)C(F)(F)F)C[C@H]54)c3)ncnc2c1 please.
output: -2.70

input: Another: C[C@]1(c2cc(Nc3nccc4nc(OCc5ncccc5F)cnc34)cc(F)c2F)N=C(N)S[C@@]2(C(F)F)C[C@@H]12
output: -2.76

input: Next compound: C/C(=C\[C@]12C[C@H]1[C@@](CF)(c1cc(NC(=O)c3ccc(Cl)cn3)ccc1F)N=C(N)S2)C(=O)N1CCOCC1
output: -2.25

input: How about this compound: C#CCOc1ccc(C(=O)Nc2cc(F)c(F)c([C@@]3(C)N=C(N)S[C@@]4(S(C)(=O)=O)C[C@H]43)c2)nc1
output: -3.40

input: Quick one: C[C@]1(c2cc(Nc3nccc4nc(OCc5ncco5)cnc34)ccc2F)N=C(N)S[C@@]2(C(=O)NC3CC3)C[C@H]21
output: -3.07

input: Same thing, different compound: COC[C@]12C[C@H]1[C@@](C)(c1cc(NC(=O)c3cnc(OCC4CC4(F)F)cn3)cc(F)c1F)N=C(N)S2 (stereo partly shown)
output: -2.59
